From: patent US20100280227A1

Experimental Target: T1, mouse BR3 extracellular domain (mouse, UniProt Q9D8D0 1-64)
T1 construct: also called mBR3-ECD; mBR-ECD
T1 sequence: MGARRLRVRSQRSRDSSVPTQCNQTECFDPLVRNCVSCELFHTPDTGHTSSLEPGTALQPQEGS
Test Description: phage competition ELISA
Property Label: pIC50
Schema: pIC50 number; meaning minus log10 of the concentration expressed in molar units.

1) V3-1 Fab (Fab, V domains shown, soluble Fab in SPR) VH: EVQLVESGGGLVQPGGSLRLSCAASGFTISSNSIHWVRQAPGKGLEWVAWITPSDGNTDYADSVKGRFTISADTSKNTAYLQMNSLRAEDTAVYYCARRVCYNRLGVCAGGMDYWGQGTLVTVSS VL: DIQMTQSPSSLSASVGDRVTITCRASQDVSTAVAWYQQKPGKAPKLLIYSASFLYSGVPSRFSGSGSGTDFTLTISSLQPEDFATYYCQQSRITPPTFGQGTKVEIKR ... 8.02

For the next question, use this binder.
Task: # input binder: 16 (Fab, V domains shown, also called V3-16) VH: EVQLVESGGGLVQPGGSLRLSCAASGFSISSNSIHWVRQAPGKGLEWVAWITPTHGSTDYADSVKGRFTISADTSKNTAYLQMNSLRAEDTAVYYCARRVCYNRLGVCAGGMDYWGQGTLVTVSS VL: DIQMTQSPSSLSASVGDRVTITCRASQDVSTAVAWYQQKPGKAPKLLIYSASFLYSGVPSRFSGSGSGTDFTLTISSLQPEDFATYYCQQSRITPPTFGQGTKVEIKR ; wanted: its pIC50
Result: 7.77
